Overview of reported melting point across a group of compounds:

Request: State its melting point: "CC(C)(CCNC(=O)[C@H]1CN([C@@H]2c3ccc(Cl)cc3CCc3cc(Br)cnc32)CCN1C(=O)CC1CCN(C(N)=O)CC1)n1ccnc1"
Result: 150 to 153 °C

Request: Read off the recorded melting point for Cn1cncc1CCN(Cc1ccccc1)C(=O)[C@H]1CN(C2c3ccc(Cl)cc3CCc3cc(Br)cnc32)CCN1C(=O)NC1CCCCC1 (single isomer, unassigned)
Result: 130 to 139 °C

Request: Dear colleague, please send me the reported melting point for CC(C)(CNC(=O)[C@H]1CN(C2c3ccc(Cl)cc3CCc3cc(Br)cnc32)CCN1C(=O)NC1CCCCC1)c1cnc[nH]1 (stereo partly drawn) when you can.
Result: 150 to 154 °C

Request: Return melting point for the following compound: Cn1cncc1CCNC(=O)[C@H]1CN(C2c3ccc(Cl)cc3CCc3cc(Br)cnc32)CCN1C(=O)c1ccc(F)cc1 (single isomer, unassigned)
Result: 144.9 to 148.7 °C

Request: Give a short answer stating reported melting point for CCCN(CCCn1ccnc1)C(=O)[C@H]1CN(C2c3ccc(Cl)cc3CCc3cc(Br)cnc32)CCN1C(=O)NC1CCCCC1 (stereo partly drawn) .
Result: 63.8 to 67.4 °C

====

Consider the following compounds and their measured melting point readings.

Record excerpt, results attached:
>>> result_value("O=C(NCC1(c2cnc[nH]2)CC1)[C@H]1CN(C2c3ccc(Cl)cc3CCc3cc(Br)cnc32)CCN1C(=O)NC1CCCCC1 (some centres unmarked)")
"156 to 158 °C"
>>> result_value("CN(CCCn1ccnc1)C(=O)[C@H]1CN(C2c3ccc(Cl)cc3CCc3cc(Br)cnc32)CCN1C(=O)NC1CCCCC1 (some centres unmarked)")
"118.4 °C"
>>> result_value("CCCn1cncc1CCNC(=O)C1CN(C2c3ccc(Cl)cc3CCc3cc(Br)cnc32)CCN1C(=O)OC(C)(C)C (centres unmarked)")
"116 to 123 °C"
>>> result_value("CC(C)(C)NC(=O)N1CCN([C@@H]2c3ccc(Cl)cc3CCc3cc(Br)cnc32)C[C@@H]1C(=O)NCCC1(n2ccnc2)CC1")
"106 to 110 °C"
>>> result_value("CC(C)OC(=O)N1CCN([C@H]2c3ccc(Cl)cc3CCc3cc(Br)cnc32)C[C@@H]1C(=O)NCCC(C)(C)n1ccnc1")
"109 to 111 °C"
>>> result_value("Cc1cn(CCCN(Cc2ccccc2)C(=O)[C@H]2CN(C3c4ccccc4CCc4cc(Cl)cnc43)CCN2C(=O)OC2CCCCC2)cn1 (some centres unmarked)")
"91 to 107 °C"
>>> result_value("Cn1cncc1CCN(Cc1ccccc1)C(=O)[C@H]1CN(C2c3ccc(Cl)cc3CCc3cccnc32)CCN1C(=O)OC(C)(C)C (single isomer, unassigned)")
"93.1 to 99.8 °C"
>>> result_value("O=C(NCCc1cnc(O)[nH]1)[C@H]1CN(C2c3ccc(Cl)cc3CCc3cc(Br)cnc32)CCN1C(=O)NC1CCCCC1 (some centres unmarked)")
"182.1 to 219.4 °C"
>>> result_value("CCN(CCCn1ccnc1)C(=O)[C@H]1CN(C2c3ccc(Cl)cc3CCc3cc(Br)cnc32)CCN1C(=O)NC1CCCCC1 (some centres unmarked)")
"79.3 °C"
>>> result_value("O=C(NCCCn1ccnc1CO)[C@H]1CN(C2c3ccc(Cl)cc3CCc3cc(Br)cnc32)CCN1C(=O)NC1CCCCC1 (some centres unmarked)")
"141.2 °C"

Request: In one line, give reported melting point of the entry CC(C)NC(=O)N1CCN(C2c3ccc(Cl)cc3CCc3cc(Br)cnc32)CC1C(=O)NCCC1(n2ccnc2)CC1 (centres unmarked) .
Result: 133 to 139 °C

Request: Specify measured melting point for Cn1cncc1CCNC(=O)[C@H]1CN(C2c3ccc(Cl)cc3CCc3cc(Br)cnc32)CCN1C(=O)Nc1ccc(F)cc1 (single isomer, unassigned) .
Result: 140.1 to 149.4 °C

Request: Using the record for O=C(NCCC(c1ccc(Cl)cc1)n1ccnc1)[C@H]1CN(C2c3ccc(Cl)cc3CCc3cc(Br)cnc32)CCN1C(=O)NC1CCCCC1 (some centres unmarked) , state its measured melting point.
Result: 138 to 140 °C

Request: Fill in melting point for record CC(C)(CCNC(=O)[C@H]1CN(C2c3ccc(Cl)cc3CCc3cc(Br)cnc32)CCN1C(=O)NC1CCCCC1)n1ccnc1 (some centres unmarked)
Result: 142 to 144 °C

Request: Input Cn1cncc1CCNC(=O)[C@H]1CN(C2c3ccc(Cl)cc3CCc3cc(Br)cnc32)CCN1S(C)(=O)=O (single isomer, unassigned) , output reported melting point.
Result: 139 to 145.1 °C

Request: Assign melting point to the following record: CCn1cncc1CCN(CC1CC1)C(=O)[C@H]1CN(C2c3ccc(Cl)cc3CCc3cc(Br)cnc32)CCN1C(=O)OC(C)(C)C (some centres unmarked)
Result: 103.7 to 107.5 °C

Request: Tell me its melting point given CC(C)OC(=O)N1CCN(C2c3ccc(Cl)cc3CCc3cc(Br)cnc32)C[C@@H]1C(=O)NCCc1cncn1C (single isomer, unassigned) as the entry.
Result: 120.3 to 126.1 °C

====

Readings of melting point for the listed compounds

Examples with their reported melting point follow.
>>> result_value("CC(C)(CCNC(=O)[C@H]1CN(C2c3ccc(Cl)cc3CCc3cc(Br)cnc32)CCN1S(C)(=O)=O)n1ccnc1 (mixture of isomers) [Example 15]")
"107 to 110 °C"
>>> result_value("Cn1cncc1CCNC(=O)[C@H]1CN(C2c3ccc(Cl)cc3CCc3cc(Br)cnc32)CCN1C(=O)OCc1ccccc1 (stereo partly shown) [Example 26]")
"111.8 to 114.5 °C"
>>> result_value("Cn1cncc1CCNC(=O)[C@H]1CN(C2c3ccc(Cl)cc3CCc3cc(Br)cnc32)CCN1C(=O)N1CCOCC1 (single isomer, unassigned) [Example 31]")
"136.4 to 138.6 °C"

Request: Note down melting point recorded for O=C(NCCn1nnc2ccccc21)[C@H]1CN(C2c3ccc(Cl)cc3CCc3cc(Br)cnc32)CCN1C(=O)NC1CCCCC1 (stereo partly shown) [Example 292]
Result: 127 to 132 °C

Request: Specify melting point for Cn1cncc1CCNC(=O)[C@H]1CN(C2c3ccc(Cl)cc3CCc3cc(Br)cnc32)CCN1C(=O)CC1CCNCC1 (single isomer, unassigned) [Example 38] and stop.
Result: 136.1 to 139.5 °C

Request: Consider the compound CCn1cncc1CCNC(=O)[C@H]1CN(C2c3ccc(Cl)cc3CCc3cc(Br)cnc32)CCN1C(=O)OC(C)(C)C (stereo partly shown) [Example 40] . State its measured melting point.
Result: 54 to 58 °C

Request: // fetch melting point given entry CC(CCNC(=O)[C@H]1CN(C2c3ccc(Cl)cc3CCc3cc(Br)cnc32)CCN1C(=O)NC1CCCCC1)n1ccnc1 (stereo partly shown) [Example 19]
Result: 133 to 138 °C

====

QUANTITY MEASURED: melting point

>>> result_value("CC(C)Cn1cncc1CCNC(=O)[C@H]1CN(C2c3ccc(Cl)cc3CCc3cc(Br)cnc32)CCN1C(=O)OC(C)(C)C (stereo partly drawn)")
"120 to 122 °C"
>>> result_value("CC(C)(C)OC(=O)N1CCN(C2c3ccc(Cl)cc3CCc3cc(Br)cnc32)C[C@@H]1C(=O)NCCc1cncn1CCc1ccccc1 (stereo partly drawn)")
"101 to 103 °C"

Next item in the queue.
Request: Supply measured melting point of Cn1cncc1CCNC(=O)[C@H]1CN(C2c3ccc(Cl)cc3CCc3cc(Br)cnc32)CCN1C(=O)OC(C)(C)C (single isomer, unassigned) in your reply.
Result: 134.9 to 137.5 °C
